Target: ATR (Homo sapiens, UniProt Q13535)
Sequence (Q13535 whole entry): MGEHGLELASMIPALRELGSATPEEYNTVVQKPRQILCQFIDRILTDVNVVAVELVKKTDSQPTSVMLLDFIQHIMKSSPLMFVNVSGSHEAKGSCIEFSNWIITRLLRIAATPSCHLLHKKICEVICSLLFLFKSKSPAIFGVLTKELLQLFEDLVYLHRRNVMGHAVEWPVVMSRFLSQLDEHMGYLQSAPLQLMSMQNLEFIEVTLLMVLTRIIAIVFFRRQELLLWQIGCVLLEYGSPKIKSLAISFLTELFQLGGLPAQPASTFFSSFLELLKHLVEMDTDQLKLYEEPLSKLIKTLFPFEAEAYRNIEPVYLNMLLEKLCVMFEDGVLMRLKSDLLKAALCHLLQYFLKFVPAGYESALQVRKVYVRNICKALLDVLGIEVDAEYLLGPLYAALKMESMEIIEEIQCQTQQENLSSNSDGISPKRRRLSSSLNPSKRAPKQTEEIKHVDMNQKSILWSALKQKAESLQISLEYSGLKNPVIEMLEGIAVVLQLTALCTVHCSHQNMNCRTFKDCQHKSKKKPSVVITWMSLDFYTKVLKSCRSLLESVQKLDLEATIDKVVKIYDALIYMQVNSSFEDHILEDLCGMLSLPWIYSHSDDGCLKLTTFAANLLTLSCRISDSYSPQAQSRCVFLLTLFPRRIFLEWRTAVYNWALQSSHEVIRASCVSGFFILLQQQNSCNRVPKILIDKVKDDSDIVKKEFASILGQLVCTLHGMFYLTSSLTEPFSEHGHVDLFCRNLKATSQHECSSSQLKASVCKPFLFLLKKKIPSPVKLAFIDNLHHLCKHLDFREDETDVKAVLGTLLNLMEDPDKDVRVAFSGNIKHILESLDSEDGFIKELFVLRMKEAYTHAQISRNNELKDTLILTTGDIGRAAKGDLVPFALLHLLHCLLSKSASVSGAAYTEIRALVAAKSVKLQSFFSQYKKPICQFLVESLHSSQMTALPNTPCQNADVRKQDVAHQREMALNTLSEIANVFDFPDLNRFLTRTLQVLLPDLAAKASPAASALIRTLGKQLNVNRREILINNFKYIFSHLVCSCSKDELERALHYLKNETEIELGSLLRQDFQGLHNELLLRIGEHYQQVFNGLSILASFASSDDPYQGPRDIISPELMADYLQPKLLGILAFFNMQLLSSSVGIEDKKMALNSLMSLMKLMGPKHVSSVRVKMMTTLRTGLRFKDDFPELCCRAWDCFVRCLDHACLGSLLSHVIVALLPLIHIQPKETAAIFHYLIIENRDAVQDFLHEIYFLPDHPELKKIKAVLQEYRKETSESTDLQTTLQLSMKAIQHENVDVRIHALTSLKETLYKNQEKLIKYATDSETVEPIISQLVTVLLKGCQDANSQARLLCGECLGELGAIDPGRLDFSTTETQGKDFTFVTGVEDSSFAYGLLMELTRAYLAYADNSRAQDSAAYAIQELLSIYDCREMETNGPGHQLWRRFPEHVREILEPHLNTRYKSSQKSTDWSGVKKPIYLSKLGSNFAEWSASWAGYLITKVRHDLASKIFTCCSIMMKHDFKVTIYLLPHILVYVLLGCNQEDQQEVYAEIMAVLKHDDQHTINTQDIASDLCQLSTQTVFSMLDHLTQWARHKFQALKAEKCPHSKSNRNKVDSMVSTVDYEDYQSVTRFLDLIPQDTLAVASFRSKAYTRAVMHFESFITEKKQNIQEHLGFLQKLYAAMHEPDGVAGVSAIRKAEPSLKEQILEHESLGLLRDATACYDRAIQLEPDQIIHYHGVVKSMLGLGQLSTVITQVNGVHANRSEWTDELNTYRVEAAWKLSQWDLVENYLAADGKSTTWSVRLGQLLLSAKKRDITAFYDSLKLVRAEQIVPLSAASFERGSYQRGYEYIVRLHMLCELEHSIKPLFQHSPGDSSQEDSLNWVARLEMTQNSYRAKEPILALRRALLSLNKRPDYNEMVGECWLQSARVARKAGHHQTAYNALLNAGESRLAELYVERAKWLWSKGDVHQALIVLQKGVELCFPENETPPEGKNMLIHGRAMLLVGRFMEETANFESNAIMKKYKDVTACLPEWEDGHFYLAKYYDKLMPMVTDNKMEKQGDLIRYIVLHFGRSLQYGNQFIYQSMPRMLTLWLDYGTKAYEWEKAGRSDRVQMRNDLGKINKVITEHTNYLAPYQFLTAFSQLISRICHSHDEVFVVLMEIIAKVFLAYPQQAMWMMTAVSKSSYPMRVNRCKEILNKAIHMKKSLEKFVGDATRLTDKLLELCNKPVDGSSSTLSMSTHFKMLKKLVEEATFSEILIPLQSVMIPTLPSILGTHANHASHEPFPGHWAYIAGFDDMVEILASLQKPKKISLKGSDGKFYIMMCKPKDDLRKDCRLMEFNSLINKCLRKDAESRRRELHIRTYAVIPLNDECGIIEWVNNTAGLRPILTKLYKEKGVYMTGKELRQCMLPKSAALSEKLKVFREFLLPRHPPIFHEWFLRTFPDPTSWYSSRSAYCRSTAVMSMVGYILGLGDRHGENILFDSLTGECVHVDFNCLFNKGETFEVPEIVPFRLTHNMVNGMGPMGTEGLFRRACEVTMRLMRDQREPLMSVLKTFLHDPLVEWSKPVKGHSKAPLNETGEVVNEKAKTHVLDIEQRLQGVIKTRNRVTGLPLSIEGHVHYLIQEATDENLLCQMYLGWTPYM
Sequence (Q8WXE1 whole entry partner): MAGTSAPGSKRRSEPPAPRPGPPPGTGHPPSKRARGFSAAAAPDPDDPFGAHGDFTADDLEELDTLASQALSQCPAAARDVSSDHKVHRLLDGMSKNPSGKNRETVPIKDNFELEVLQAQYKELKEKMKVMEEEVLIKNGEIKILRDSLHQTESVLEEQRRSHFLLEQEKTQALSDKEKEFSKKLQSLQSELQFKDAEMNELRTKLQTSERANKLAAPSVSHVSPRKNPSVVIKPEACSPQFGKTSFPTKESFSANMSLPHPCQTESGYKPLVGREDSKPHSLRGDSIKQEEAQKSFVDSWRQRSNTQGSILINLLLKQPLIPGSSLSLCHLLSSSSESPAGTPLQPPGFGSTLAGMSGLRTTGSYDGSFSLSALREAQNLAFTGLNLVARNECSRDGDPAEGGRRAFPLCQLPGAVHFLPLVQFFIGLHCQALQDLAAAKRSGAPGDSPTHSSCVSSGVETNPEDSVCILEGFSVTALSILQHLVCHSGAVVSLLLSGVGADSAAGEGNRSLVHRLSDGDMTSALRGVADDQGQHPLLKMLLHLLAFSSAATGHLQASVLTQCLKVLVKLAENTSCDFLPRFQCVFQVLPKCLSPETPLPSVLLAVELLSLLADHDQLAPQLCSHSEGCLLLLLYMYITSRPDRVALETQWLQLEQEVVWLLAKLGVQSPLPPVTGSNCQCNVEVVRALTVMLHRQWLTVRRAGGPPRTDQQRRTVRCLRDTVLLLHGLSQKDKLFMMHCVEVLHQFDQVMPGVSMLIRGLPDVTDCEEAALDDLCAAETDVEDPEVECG
Experiment: In vitro inhibitory activity against the ATR enzyme
Type: biochemical
Conditions: mean ± SD of two independent experiments; read-out: ATR IC50 ± SD
quantity-measured: IC50 (µM)

| compound | IC50, µM |
| --- | --- |
| CCCC(=O)N1CCc2c(nc(-c3ccnc4[nH]ccc34)nc2N2CCOC[C@H]2C)C1 [ZH-3] | 0.0425 |
| CCNC(=O)N1CCc2c(nc(-c3cccc4[nH]ccc34)nc2N2CCOC[C@H]2C)C1 [ZH-14] | 0.0149 |
| C[C@@H]1COCCN1c1nc(-c2cccc3[nH]ccc23)nc2c1CCN(C(=O)C1CCOCC1)C2 [ZH-13] | 0.215 |
| C[C@@H]1COCCN1c1nc(-c2cccc3[nH]ccc23)nc2c1CCN(C(=O)CC#N)C2 [ZH-12] | 0.00681 |

A: C[C@@H]1COCCN1c1nc(-c2ccnc3[nH]ccc23)nc2c1CCN(C(=O)C1CC(=O)C1)C2 [ZH-9]
B: CCC(=O)N1CCc2c(nc(-c3ccnc4[nH]ccc34)nc2N2CCOC[C@H]2C)C1 [ZH-2]
C: C[C@@H]1COCCN1c1nc(-c2ccnc3[nH]ccc23)nc2c1CCN(C(=O)C1CCOCC1)C2 [ZH-8]
Query: Which order do these items take when sorted by rising IC50? List them. Would you mind listing the labels in the order asked for?
Result: A, C, B

1: CCNC(=O)N1CCc2c(nc(-c3ccnc4[nH]ccc34)nc2N2CCOC[C@H]2C)C1 [ZH-11]
2: CCS(=O)(=O)N1CCc2c(nc(-c3ccnc4[nH]ccc34)nc2N2CCOC[C@H]2C)C1 [ZH-1]
Query: Between these two entries, 1 and 2 , state which has the higher IC50. Reply briefly: the label of your chosen item.
Result: 2
(2: 0.0533 µM, 1: 0.0114 µM)

A: CC(C)CC(=O)N1CCc2c(nc(-c3ccnc4[nH]ccc34)nc2N2CCOC[C@H]2C)C1 [ZH-4]
B: C[C@@H]1COCCN1c1nc(-c2ccnc3[nH]ccc23)nc2c1CCN(C(=O)CO)C2 [ZH-6]
Query: Lowest IC50? choose A or B Reply briefly: the label of your chosen item.
Result: A

====

quantity-measured: melting point

As a guide, the following entries are already answered.
| smiles-code | melting point |
| --- | --- |
| C[C@@H]1COCCN1c1nc(-c2ccnc3[nH]ccc23)nc2c1CCN(C(=O)CO)C2 | 174 to 176 °C |
| C[C@@H]1COCCN1c1nc(-c2ccnc3[nH]ccc23)nc2c1CCN(C(=O)CC#N)C2 | > 250 °C |
| C[C@@H]1COCCN1c1nc(-c2ccnc3[nH]ccc23)nc2c1CCN(C(=O)C1CCC(=O)CC1)C2 | 240 to 242 °C |
| C[C@@H]1COCCN1c1nc(-c2ccnc3[nH]ccc23)nc2c1CCN(C(=O)C1CC(=O)C1)C2 | 222 to 224 °C |

Continue with the compound presented below.
Query: Supply reported melting point belonging to this compound: COCC(=O)N1CCc2c(nc(-c3ccnc4[nH]ccc34)nc2N2CCOC[C@H]2C)C1
Result: 294 to 296 °C
